The reader will find reported protein stability index values listed item by item below.
B1: DLC1 (parent)
chain: AEVVKIRDSFSNQNTETKDTKSR

- Variants of: B1
- Experimental Details: protein stability index of a GFP-peptide fusion (GPS, HEK-293T) (PSI 1-6); higher = more stable;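 also: lentivirally expressed fusions sorted by FACS into six bins by GFP to DsRed ratio, PSI derived from sequencing read proportions per bin multiplied by bin number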
- Condition Set: c terminus: native
Form field (numeric): enter value without unit.

The examples below pair each entry with its known result.
Lab book: protein stability index of `S22I` noted as 3.14

Lab book: protein stability index of `R23Y` noted as 4.56

Lab book: protein stability index of `S11P` noted as 2.54

Lab book: protein stability index of `E16G` noted as 2.38

Lab book: protein stability index of `T20Y` noted as 2.1

Lab book: protein stability index of `R23Q` noted as 5.65

Lab book: protein stability index of `T20S` noted as 1.79

Lab book: protein stability index of `D8Y` noted as 3.5

***
Lab book: protein stability index of `E16N` noted as 2.27

Lab book: protein stability index of `T15P` noted as 2.08

Lab book: protein stability index of `V4P` noted as 3.04

Lab book: protein stability index of `R7D` noted as 3.65

Lab book: protein stability index of `E16I` noted as 1.97

Lab book: protein stability index of `K5A` noted as 2

Lab book: protein stability index of `S11R` noted as 2.78

Lab book: protein stability index of `E16C` noted as 1.84

Lab book: protein stability index of `N12Y` noted as 1.78
